Biological target: T1, human recombinant GIP receptor (human, UniProt P48546 22-466)
T1 construct: whole, on cells; Assayed as washed membranes of CHO-K1 cells expressing the receptor; also called hGIP receptor
T1 sequence (looked up): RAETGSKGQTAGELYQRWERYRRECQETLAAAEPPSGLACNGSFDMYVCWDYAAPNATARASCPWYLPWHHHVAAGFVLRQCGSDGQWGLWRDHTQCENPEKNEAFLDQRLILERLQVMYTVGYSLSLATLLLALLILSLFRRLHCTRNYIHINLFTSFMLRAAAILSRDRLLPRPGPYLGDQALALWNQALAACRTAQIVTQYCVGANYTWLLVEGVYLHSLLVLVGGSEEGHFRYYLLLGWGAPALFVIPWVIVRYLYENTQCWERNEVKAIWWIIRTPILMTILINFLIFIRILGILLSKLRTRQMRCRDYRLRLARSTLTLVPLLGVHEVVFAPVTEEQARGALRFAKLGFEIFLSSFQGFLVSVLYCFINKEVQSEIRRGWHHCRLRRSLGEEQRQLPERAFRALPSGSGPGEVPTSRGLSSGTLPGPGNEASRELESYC
Assay: radioligand competition, [125I]GIP on membranes of CHO-K1 cells expressing human GIP receptor
Primed or numbered codes have the meaning given here. Where no end group is shown, it is not given here. [ ]: non-standard residue; d: D form. The star is where a group is joined. Psu″ = N-propylsuccinimide on the Cys thiol (Cys(Psu)), CCCN1C(=O)CC(*)C1=O; Hsu = N-hexylsuccinimide on Cys S, CCCCCCN1C(=O)CC(*)C1=O; d2Nal = N[C@H](Cc1ccc2ccccc2c1)C(=O)O; Cyclohexanecarbonyl = O=C(C1CCCCC1)*; Cys(Psu) = not defined here; Decanoyl = CCCCCCCCCC(=O)*; Ac6c = NC1(C(=O)O)CCCCC1; Orn = NCCC[C@H](N)C(=O)O; Hexanoyl = CCCCCC(=O)*
QUANTITY KIND: Ki (nM)
Use nM as the unit, but write only the number.

// solved cases for Ki follow
>>> experimental_result("XSDYSIAMDKIHQQDFVNWLLAQKGKKNDWKHNITQQ (N-terminal acetyl (Ac); A6c at 7; added Gln at 43; hGIP numbering; C-terminal free acid, Synthetic analogue of human GIP with an added residue 43) [(Ac-A6c^7, Gln^43)hGIP(7-43)-OH]")
7.92
>>> experimental_result("XEGTFISDYXIAMDKIHQQDFVNWLLAQKGKKNDWKHNITQ (4Hppa at 2; A6c at 11; hGIP numbering; C-terminal free acid, Synthetic analogue of human GIP) [(4Hppa^2, A6c^11)hGIP(2-42)-OH]")
91.8
>>> experimental_result("Ac-[Ac6c]SDYSIAMDKIHQQDFVNWLLAQKGKKNDWC(Psu″)HNITQ-OH (Synthetic analogue of human GIP) [[Ac-A6c^7, Cys(Psu)^37]hGIP(7-42)-OH]")
127
>>> experimental_result("[Ac6c]SDYSIAMDKIHQQDFVNWLLAQKC(Hsu)KKNDWKHNITQ-OH (Synthetic analogue of human GIP) [[A6c^7, Cys(Hsu)^31]hGIP(7-42)-OH]")
772
>>> experimental_result("XPGTFISDYSIAXDKIHQQDFVNWLLAQKGKKNDWKHNITQ (4Hppa at 2; Pro at 3; Nle at 14; hGIP numbering; C-terminal free acid, Synthetic analogue of human GIP) [(4Hppa^2, Pro^3, Nle^14)hGIP(2-42)-OH]")
800
>>> experimental_result("Decanoyl-[Ac6c]SDYSIAMDKIHQQDFVNWLLAQKGKK[Orn](Decanoyl)DWKHNITQ-OH (Synthetic analogue of human GIP) [[CH3-(CH2)8-C(O)-A6c^7, Orn^34(N-C(O)-(CH2)8-CH3)]hGIP(7-42)-OH]")
164

# Ki of XXGTFXSDYSIAMDKIHQQDFVNWLLAQKGKKNDWKHNITQ (4Hppa (3-(4-hydroxyphenyl)propionic acid) at 2; 4Hyp at 3; A6c at 7; hGIP numbering; C-terminal free acid, Synthetic analogue of human GIP) [(4Hppa^2, 4Hyp^3, A6c^7)hGIP(2-42)-OH] = 294

The recorded Ki for Ac-[Ac6c]SDYSIAMDKIHQQDFVNWLLAQK[d2Nal]KKNDWKHNITQ-OH (X stands for the non-natural residues) [(Ac-A6c^7, D-2Nal^31)hGIP(7-42)-OH] is 159

The value of Ki measured for the binder Cyclohexanecarbonyl-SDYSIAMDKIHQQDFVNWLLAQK[Cys(Psu)]KKNDWKHNITQ-OH (reading uncertain, Synthetic analogue of human GIP) [[Chc-Ser^8, Cys(Psu)^31]hGIP(8-42)-OH] turned out to be 403

Field Ki (entry Ac-DYSIAMDKIHQQDFVNWLLAQKGK[Cys(Psu)]NDWKHNITQ-OH (reading uncertain, Synthetic analogue of human GIP) [[Ac-Asp^9, Cys(Psu)^33]hGIP(9-42)-OH] ) reads 472

Documented Ki of Hexanoyl-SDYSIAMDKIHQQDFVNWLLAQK[Cys(Psu)]KKNDWKHNITQ-OH (reading uncertain, Synthetic analogue of human GIP) [[CH3-(CH2)4-C(O)-Ser^8, Cys(Psu)^31]hGIP(8-42)-OH] : 205
